# Measured Target: MAGI1_2, Q96QZ7
# Sequence (Q96QZ7 456-580): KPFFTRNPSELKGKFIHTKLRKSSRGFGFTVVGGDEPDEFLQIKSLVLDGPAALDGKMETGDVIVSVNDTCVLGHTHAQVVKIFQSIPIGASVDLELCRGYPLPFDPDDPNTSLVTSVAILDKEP
# Test Summary: holdup assay
# Parameters: key: below the threshold = too weak to quantify, mostly under pKd 3.1 to 4
# Assay Context: plain residues with an end cap or a label only (N-terminal biotin on a linker: ado-ado)
Metric: pKd

Use the examples below as a reference point.
# Binder, Metric, Result Value
data = [
    ("MLPANYVEAI [NEB, P20929]", "pKd", "below the threshold"),
    ("SQDPKKPSRV [CBY2, Q8NA61]", "pKd", "below the threshold"),
    ("THREVKFTSL [CD46, P15529]", "pKd", 3.81),
    ("MQILSKPEFI [NPSR1, Q6W5P4]", "pKd", "below the threshold"),
    ("YAEKRMLTEV [KCNA6, P17658]", "pKd", 4.54),
]

Would you mind listing pKd for each of the following binders?
1. RGKNRRQSIF [CDK18, Q07002]
2. AHGSTRDQSI [KCNB1, Q14721]
3. EAVTVESTSL [SLC22A11, Q9NSA0]
4. ELKAEDEVQI [DCHS2, Q6V1P9]
5. SSSVNVSSNL [CXCR1, P25024]
6. FHSIKQSTAV [CRHR1, P34998]
7. GDSSRKEYFI [GYPC, P04921]
8. VCMGDHWFDV [PRKN, O60260]

3.91
below the threshold
below the threshold
below the threshold
below the threshold
5.05
below the threshold
below the threshold

Provide pKd values for the following items, in order.
1. LPPPESESKV [KCNJ9, Q92806]
2. PKSNSSKEYV [CLDN7, O95471]
3. PALKNGQYWV [CSPG4, Q6UVK1]

below the threshold
below the threshold
below the threshold
